# Tested on: NCI-H1975 EGFR L858R/T790M cells
# measurement protocol: Cell proliferation, NCI-H1975 EGFR L858R/T790M (CellTiter-Glo, 72 h);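 note: viable cells quantified by luciferase-based ATP luminescence, proliferation expressed relative to DMSO-treated wells (100%) after subtracting a parallel plate read at the time of dosing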
# Assay type: cell-based
# measurement setup: Homo sapiens, NCI-H1975, 72 h, NCI-H1975, 72 h proliferation; read-out: EGFR L858R and T790M mutation GI50
Hi! Could you tag entries with GI50 below 2 nM as 1, and those at or above as -1? Much appreciated.

{"compound": "C=CC(=O)Nc1cc(Nc2nccc(Nc3cc(Cl)c(F)cc3C(C)(C)O)n2)c(OC)cc1N1C[C@@H](C)C[C@@H]1CN(C)C", "answer label": -1}
{"compound": "C=CC(=O)Nc1cc(Nc2ncnc(Nc3cc(Cl)c(F)cc3C(C)(C)O)n2)c(OC)cc1N1CC[C@@H](N(C)C)C1", "answer label": -1}
{"compound": "C=CC(=O)Nc1cc(Nc2ncnc(Nc3cc(Cl)c(F)cc3C(C)(C)O)n2)c(OC)cc1N1CCC[C@H]1CN(C)C", "answer label": -1}

Decide: GI50 of C=CC(=O)Nc1cc(Nc2ncnc(Nc3cc(Cl)c(F)cc3C(C)(O)CC)n2)c(OC)cc1N(C)CCN(C)C (centres unmarked) strictly below 2 nM?
-1

Decide: GI50 of C=CC(=O)Nc1cc(Nc2ncnc(Nc3cc(Cl)c(F)cc3C(C)(O)CC)n2)c(OC)cc1N1CCC[C@@H]1CN(C)C (some centres unmarked) strictly below 2 nM?
1

Decide: GI50 of `C=CC(=O)Nc1cc(Nc2ncnc(Nc3cc(F)c(F)cc3C(C)(C)O)n2)c(OC)cc1N1CC[C@@H](N(C)C)C1` strictly below 2 nM?
-1

Decide: GI50 of `[2H]C([2H])([2H])N(CCN(C)c1cc(OC)c(Nc2ncnc(Nc3cc(F)c(Cl)cc3C(C)(C)O)n2)cc1NC(=O)C=C)C([2H])([2H])[2H]` strictly below 2 nM?
1

Decide: GI50 of `C=CC(=O)Nc1cc(Nc2ncnc(Nc3cnc(C)cc3C(C)(C)O)n2)c(OC)cc1N(C)CCN(C)C` strictly below 2 nM?
-1

Decide: GI50 of `C=CC(=O)Nc1cc(Nc2nccc(Nc3cc(Cl)c(F)cc3C(C)(C)O)n2)c(OC)cc1N1CC[C@@H]1CN(C)C` strictly below 2 nM?
-1

Decide: GI50 of `C=CC(=O)Nc1cc(Nc2ncnc(Nc3cc(F)c(F)cc3C(C)(C)O)n2)c(OC)cc1N(C)CCN1CCCC1` strictly below 2 nM?
-1

Decide: GI50 of `C=CC(=O)Nc1cc(Nc2ncnc(Nc3cc(Cl)c(Cl)cc3C(C)(C)O)n2)c(OC)cc1N1CC[C@@H](N(C)C)C1` strictly below 2 nM?
-1

---

# assayed target: BTK (Homo sapiens)
# Sequence (Q06187 whole entry): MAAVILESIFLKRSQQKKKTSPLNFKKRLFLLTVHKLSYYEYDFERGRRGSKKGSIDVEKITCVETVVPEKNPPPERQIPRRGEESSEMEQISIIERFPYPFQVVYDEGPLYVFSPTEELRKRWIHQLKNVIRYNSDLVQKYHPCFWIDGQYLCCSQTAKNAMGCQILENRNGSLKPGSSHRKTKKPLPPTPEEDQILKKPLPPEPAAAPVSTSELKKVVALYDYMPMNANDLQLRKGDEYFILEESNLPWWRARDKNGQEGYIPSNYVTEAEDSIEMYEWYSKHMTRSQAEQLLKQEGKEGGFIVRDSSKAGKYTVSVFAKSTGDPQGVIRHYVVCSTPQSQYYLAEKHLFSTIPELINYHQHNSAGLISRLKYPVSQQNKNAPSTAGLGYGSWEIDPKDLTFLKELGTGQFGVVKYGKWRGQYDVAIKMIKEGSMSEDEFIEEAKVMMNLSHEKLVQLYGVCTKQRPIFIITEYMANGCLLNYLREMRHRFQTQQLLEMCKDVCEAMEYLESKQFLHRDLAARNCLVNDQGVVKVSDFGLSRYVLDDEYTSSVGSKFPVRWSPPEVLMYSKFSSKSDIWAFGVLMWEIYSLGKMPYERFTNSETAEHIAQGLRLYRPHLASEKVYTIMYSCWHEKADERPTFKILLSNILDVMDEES
# measurement protocol: BTK target site occupancy ELISA (Ramos)
# Type: cell-based
# Design: endogenous in cells; host or cells: Ramos
# measurement setup: BTK receptor occupancy, read-out: Occupancy (Romas) IC50
Structures can show the parent of a compound that is named as a salt.
readout: pIC50
Give bare numbers, as −log10 of the molar value.

{"compound": "C=CC(=O)Nc1cc(Nc2ncnc(Nc3cc(F)c(F)cc3C(C)(C)O)n2)c(OC)cc1N1CC(CN(C)C)C1", "assayed target": "BTK (Homo sapiens)", "obs value": 8.96}
{"compound": "C=CC(=O)Nc1cc(Nc2ncnc(Nc3cc(Cl)c(F)cc3C(C)(C)O)n2)c(OC)cc1N1CC[C@@H]1CN(C)C", "assayed target": "BTK (Homo sapiens)", "obs value": 9.10}

Please state, for each entry, its recorded pIC50.
1. C=CC(=O)Nc1cc(Nc2nccc(Nc3cc(Cl)c(F)cc3C(C)(C)O)n2)c(OC)cc1N1CC[C@@H](N(C)C)C1
2. C=CC(=O)Nc1cc(Nc2ncnc(Nc3cc(Cl)c(F)cc3C(C)(C)O)n2)c(OC)cc1N1CC(CN(C)C)C1
3. C=CC(=O)Nc1cc(Nc2nccc(Nc3cc(Cl)c(F)cc3C(C)(C)O)n2)c(OC)cc1N1CC[C@@H]1CN(C)C

1: 9.22; 2: 9.00; 3: 8.51

Please state, for each entry, its recorded pIC50.
1. C=CC(=O)Nc1cc(Nc2nccc(Nc3cc(Cl)c(F)cc3C(C)(O)CC)n2)c(OC)cc1N1CC[C@@H](N(C)C)C1 (single isomer, unassigned)
2. C=CC(=O)Nc1cc(Nc2nccc(Nc3cc(Cl)c(F)cc3C(C)(C)O)n2)c(OC)cc1N1CC[C@@H](NC)C1 [Compound 80, TFA salt]

1: 9.31; 2: 8.47
